Ref: patent US6426229B1

protocolNotes: Compression strength (hardening property) of powder stored under load for 2 months
Assay type: physicochemical
conditionContext: Load 100 (table head [Kg]; text 100 g/cm^2); 20-30° C., relative humidity 40-70%
measurementLabel: Compression strength after stored for 2 months (Kg/cm^2)
Give just the numeric value; Kg/cm^2 need not be written.

INSERT INTO results (compound, reportedvalue) VALUES
  ('O=C([O-])CCN[C@@H](CC(=O)[O-])C(=O)[O-].[Na+].[Na+].[Na+] [compound 2, reference compound]', 3.0),
  ('O=C([O-])CC(NCCNC(CC(=O)[O-])C(=O)[O-])C(=O)[O-].[Na+].[Na+].[Na+].[Na+] (stereo not shown) [Example 51, tetrasodium ethylenediaminedisuccinate]', 1.2),
  ('C[C@@H](C(=O)[O-])N(CC(=O)[O-])CC(=O)[O-].[Na+].[Na+].[Na+] [Example 8]', 1.0);

Next, consider the following compound.
Query: Provide measured Compression strength after stored for 2 months value, entry: O=C(O)C[C@@H](C(=O)O)N(CC(=O)O)CC(=O)O [Example 19, (S)-aspartic acid-N,N-diacetic acid]
Response: 1.1
